Hello, the source for this data is patent US20130005646A1, in case you need it.

# TARGET OF ASSAY: T1, human calcitonin (a) receptor (human, UniProt P30988 25-474)
# T1 sequence (looked up): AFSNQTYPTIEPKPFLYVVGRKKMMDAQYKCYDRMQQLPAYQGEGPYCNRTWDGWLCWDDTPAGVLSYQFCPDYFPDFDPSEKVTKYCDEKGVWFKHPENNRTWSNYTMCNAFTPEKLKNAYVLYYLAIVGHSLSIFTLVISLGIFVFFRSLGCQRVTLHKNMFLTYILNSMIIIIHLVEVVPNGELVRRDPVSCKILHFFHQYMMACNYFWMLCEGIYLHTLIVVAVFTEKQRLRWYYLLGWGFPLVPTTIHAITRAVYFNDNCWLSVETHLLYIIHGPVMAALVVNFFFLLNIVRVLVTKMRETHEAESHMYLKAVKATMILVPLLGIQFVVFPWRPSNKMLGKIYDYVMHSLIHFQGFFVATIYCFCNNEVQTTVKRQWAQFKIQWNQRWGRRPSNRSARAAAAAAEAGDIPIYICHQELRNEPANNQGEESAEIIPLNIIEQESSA
# MEASUREMENT NOTES: cell-based or functional assay
Starred links: 1 amine or outer side, 2 acyl side, 3 side chain; linkers in the order of their positions; H or OH if unused. Positions of bridges follow the written chain, without caps; N, C: chain ends. Groups on a side chain read outwards from the residue. No end group written: not given here. *: point of attachment. C18 diacid = O=C(O)CCCCCCCCCCCCCCCCC(=O)*; γGlu = O=C(O)[C@H](CCC(=O)[*:2])N[*:1]; AEEA = NCCOCCOCC(=O)O
MEASUREMENT TYPE: CTa receptor human EC50 (pM)

Observe how each entry below is paired with its result.
>>> numeric_result("KCNTATCATQRLAEFLHHSSK([AEEA-AEEA-γGlu-19‑carboxyheptadecanoyl])NFGPILSSTNVGSHTY-NH2 (disulfide 2-7)")
319
>>> numeric_result("{C18 diacid-γGlu}-KCNTATCATQRLAEFLHHSSNNFGPILPPTNVGSNTY-NH2 (disulfide 2-7; not fully specified; printed as N-alpha-[(S)-4-Carboxy-4-(17-carboxyheptadecanoylamino)butyryl]-[Glu14,His17]-pramlintide) [N-alpha-[(S)-4-Carboxy-4-(17-carboxyheptadecanoylamino)butyryl]-[Glu14,His17]-pramlintide]")
79.2
>>> numeric_result("KCNTATCATQRLANFLHHSSNNFGK([AEEA-AEEA-γGlu-19‑carboxyheptadecanoyl])ILSSTNVGSHTY-NH2 (disulfide 2-7)")
114
>>> numeric_result("KCNTATCATQRLAEFLHHSSSNFGK([AEEA-AEEA-γGlu-19‑carboxyheptadecanoyl])ILSSTNVGSHTY-NH2 (disulfide 2-7)")
142
>>> numeric_result("{C18 diacid-γGlu}-KCNTATCATQRLAEFLHHSSNNFGPILPPTNVGSHTY-NH2 (disulfide 2-7; not fully specified; printed as N-alpha-[(S)-4-Carboxy-4-(17-carboxyheptadecanoylamino)butyryl]-[Glu14,His17,His35]-pramlintide) [N-alpha-[(S)-4-Carboxy-4-(17-carboxyheptadecanoylamino)butyryl]-[Glu14,His17,His35]-pramlintide]")
60.5

A: KCNTATCATQRLAEFLHHSSK([AEEA-AEEA-γGlu-19‑carboxyheptadecanoyl])NFGPILSPTNVGSHTY-NH2 (disulfide 2-7)
B: KCNTATCATQRLAEFLVHSSK([AEEA-AEEA-γGlu-19‑carboxyheptadecanoyl])NFGPILSRTNVGSHTY-NH2 (disulfide 2-7)
Input pair: A , B . Output: entry with lower CTa receptor human EC50. API: response body contains the label of the selected item.
B
